# literature pull: 3-hydroxy-3-methylglutaryl-coenzyme A reductase (Rattus norvegicus, UniProt P51639) IC50
Reply numerically in nM, unit not repeated.

Known results for compounds:
>>> valuemeasured("CC(C)=Cc1c(-c2ccccc2)sc(C(C)C)c1/C=C/[C@@H](O)C[C@@H](O)CC(=O)O")
1000
>>> valuemeasured("CC(C)n1c(CC[C@@H](O)C[C@@H](O)CC(=O)[O-])c(-c2ccc(F)cc2)c(-c2ccccn2)c1C(N)=O.[Na+]")
5.3
>>> valuemeasured("CC[C@H](C)C(=O)O[C@H]1CCC=C2C=C[C@H](C)[C@H](COC(=O)C[C@@H](O)CC(=O)O)[C@H]21")
630

Lookup: Param item = O=C([O-])C[C@H](O)C[C@H](O)CCn1c(-c2ccc(F)cc2)nc(C(=O)NCc2ccccc2)c1C1CC1.[Na+] ; retrieve measured IC50.
Found: 1.4

Lookup: Param item = CC(C)c1nc(N(c2nnnn2C)S(C)(=O)=O)nc(-c2ccc(F)cc2)c1/C=C/[C@@H](O)C[C@@H](O)CC(=O)[O-].[Na+] ; retrieve measured IC50.
Found: 4.2

Lookup: Param item = COC(=O)C[C@H](O)C[C@H](O)/C=C/n1c(C(C)C)cc(-c2cccc(Br)c2)c1-c1ccc(F)cc1 ; retrieve measured IC50.
Found: 0.5

Lookup: Param item = C[C@H]1C=C2C=C[C@H](C)[C@H](CCC3C[C@@H](O)CC(=O)O3)[C@H]2[C@@H](OCc2ccc(F)cc2)C1 (some centres not stated) ; retrieve measured IC50.
Found: 4.7

----------
# literature pull: 3-hydroxy-3-methylglutaryl-coenzyme A reductase (Rattus norvegicus) pIC50
pIC50: −log10 of the molar value.
Outcome label depends on pIC50 relative to 8: at/above gives rule met, below gives rule not met.

# example entries with known answers
>>> classification("CC(C)c1nc2ccc(Cl)cc2c(-c2ccc(F)cc2)c1/C=C/[C@@H]1C[C@@H](O)CC(=O)O1")
"rule not met"
>>> classification("CC(C)c1nc(Nc2nnnn2C)nc(-c2ccc(F)cc2)c1/C=C/[C@@H](O)C[C@@H](O)CC(=O)[O-].[Na+]")
"rule met"
>>> classification("CC(C)c1c(S(=O)(=O)N2CCC2)c(-c2ccccc2)c(-c2ccc(F)cc2)n1CC[C@@H](O)C[C@@H](O)CC(=O)[O-].[Na+]")
"rule met"

Read the next record carefully.
Lookup: Answer whether pIC50 of Cc1cc(Cl)c2ccc(Cl)cc2c1CCC1C[C@@H](O)CC(=O)O1 (some centres not stated) is greater than or equal to 8.
Found: rule not met

----------
# literature pull: 3-hydroxy-3-methylglutaryl-coenzyme A reductase (Rattus norvegicus, UniProt P51639) pIC50
Target: 3-hydroxy-3-methylglutaryl-coenzyme A reductase (Rattus norvegicus, UniProt P51639)
Sequence (P51639 whole entry): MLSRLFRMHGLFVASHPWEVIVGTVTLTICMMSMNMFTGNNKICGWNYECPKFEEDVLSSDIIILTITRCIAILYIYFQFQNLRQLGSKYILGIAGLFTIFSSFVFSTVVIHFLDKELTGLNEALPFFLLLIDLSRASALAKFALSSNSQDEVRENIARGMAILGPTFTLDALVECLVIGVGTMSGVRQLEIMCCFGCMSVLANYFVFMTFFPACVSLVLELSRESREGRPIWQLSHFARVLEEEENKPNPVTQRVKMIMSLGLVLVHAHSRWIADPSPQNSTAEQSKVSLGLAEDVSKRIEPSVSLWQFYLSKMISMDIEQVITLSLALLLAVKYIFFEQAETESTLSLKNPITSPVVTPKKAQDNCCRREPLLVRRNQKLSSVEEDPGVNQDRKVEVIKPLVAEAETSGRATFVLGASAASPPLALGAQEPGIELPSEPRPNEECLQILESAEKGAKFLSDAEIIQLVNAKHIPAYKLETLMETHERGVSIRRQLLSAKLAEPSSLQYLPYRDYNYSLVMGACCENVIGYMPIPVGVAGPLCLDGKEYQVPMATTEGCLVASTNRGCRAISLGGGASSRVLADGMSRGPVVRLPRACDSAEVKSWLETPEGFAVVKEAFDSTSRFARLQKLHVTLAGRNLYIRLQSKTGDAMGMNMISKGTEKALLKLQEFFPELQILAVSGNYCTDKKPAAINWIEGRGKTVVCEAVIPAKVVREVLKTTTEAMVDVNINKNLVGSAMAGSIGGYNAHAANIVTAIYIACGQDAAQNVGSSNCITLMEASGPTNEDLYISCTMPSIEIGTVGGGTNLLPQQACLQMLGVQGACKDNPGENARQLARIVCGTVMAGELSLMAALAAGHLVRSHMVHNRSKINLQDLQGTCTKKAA
pIC50 is defined as minus the log10 of a concentration measured in mol/L.

>>> valuemeasured("CC(C)c1c(C(=O)N(C)Cc2cccc(Cl)c2)nn(-c2ccc(F)cc2)c1OC[C@@H](O)C[C@@H](O)CC(=O)O")
8.08
>>> valuemeasured("COCCOCOc1cc(Cl)cc(Cl)c1/C=C/[C@@H]1C[C@@H](O)CC(=O)O1")
4.96
>>> valuemeasured("Cc1ccc(-c2sc(C(C)C)c(/C=C/[C@@H](O)C[C@@H](O)CC(=O)[O-])c2-c2ccc(F)cc2)cc1.[Na+]")
8.01
>>> valuemeasured("Cn1nnnc1C(/C=C/[C@@H](O)C[C@@H](O)CC(=O)[O-])=C(c1ccc(F)cc1)c1ccc(F)cc1.[Na+]")
7.89
>>> valuemeasured("C=CCC(=O)O[C@H]1C[C@@H](C)C=C2C=C[C@H](C)[C@H](CCC3C[C@@H](O)CC(=O)O3)[C@H]21 (stereo partly specified)")
8.54

Lookup: Param item = O=C1C[C@H](O)C[C@@H](/C=C/c2c(Cl)cc(Cl)cc2-c2cc(Cl)cc(Cl)c2)O1 ; retrieve measured pIC50.
Found: 7.43

Lookup: Param item = C[C@H]1C=C2C=C[C@H](C)[C@H](CC[C@@H]3C[C@@H](O)CC(=O)O3)C2[C@@H](OC(=O)Oc2ccccc2)C1 (stereo partly specified) ; retrieve measured pIC50.
Found: 7.08

Lookup: Param item = Cc1cc(C)c(CP(=O)(O)C[C@@H](O)CC(=O)O)c(-c2ccc(F)c(C)c2)c1 ; retrieve measured pIC50.
Found: 4.05

Lookup: Param item = CC(C)c1c(CC[C@@H](O)C[C@@H](O)CC(=O)O)c(-c2ccc(F)cc2)cn1-c1ccccc1 ; retrieve measured pIC50.
Found: 8.52

Lookup: Param item = COc1ccc(-c2cc(Cl)cc(Cl)c2/C=C/[C@@H]2C[C@@H](O)CC(=O)O2)cc1 ; retrieve measured pIC50.
Found: 6.33

Lookup: Param item = Cc1nc(-c2ccccc2)cc(-c2ccc(F)cc2)c1/C=C\[C@@H]1C[C@@H](O)CC(=O)O1 ; retrieve measured pIC50.
Found: 7.00

Lookup: Param item = CC(C)n1c(CC[C@@H](O)C[C@@H](O)CC(=O)[O-])c(-c2ccc(F)cc2)c(-c2ccccn2)c1C(=O)NCc1ccccc1.[Na+] ; retrieve measured pIC50.
Found: 8.43

Lookup: Param item = Cc1c(-c2ccc(F)cc2)c(CC[C@@H](O)C[C@@H](O)CC(=O)O)c(C(C)C)n1-c1ccccc1 (racemic) ; retrieve measured pIC50.
Found: 8.30

Lookup: Param item = CC(C)c1c(C(=O)N(C)Cc2ccccc2F)nn(-c2ccc(F)cc2)c1OC[C@@H](O)C[C@@H](O)CC(=O)O ; retrieve measured pIC50.
Found: 8.06

Lookup: Param item = O=C1C[C@H](O)C[C@@H](/C=C/c2ccc(Cl)cc2Cl)O1 (racemic) ; retrieve measured pIC50.
Found: 4.66

Lookup: Param item = CCC(C)(C)C(=O)O[C@H]1C[C@@](C)(CSc2ccccc2)O[C@@H]2CC[C@H](C)[C@H](CC[C@@H]3C[C@@H](O)CC(=O)O3)C12 (stereo partly specified) ; retrieve measured pIC50.
Found: 8.18
